# experimentNotes: Distribution coefficient, effective log D of the compound at pH 7.4 by RP-HPLC based ElogD(oct) method
# Format: physicochemical
Non-standard residues stand in square brackets, D forms with d. Residues, ends and D or L forms follow the SMILES beside them. NMeY = CN[C@@H](Cc1ccc(O)cc1)C(=O)O; NMeL = CN[C@@H](CC(C)C)C(=O)O; dNMeL = CN[C@H](CC(C)C)C(=O)O
measuredProperty: chromatographic logD

CC(C)C[C@@H]1NC(=O)[C@H]2CCCN2C(=O)[C@H](CC(C)C)N(C)C(=O)C[C@H](O)[C@H](CC(C)C)NC(=O)[C@H](CC(C)C)N(C)C(=O)[C@H](CC(C)C)N(C)C(=O)C[C@@H]1O    6
CC(C)C[C@@H]1NC(=O)[C@H](CC(C)C)N(C)C(=O)[C@H](CC(C)C)N(C)C(=O)C[C@H](O)[C@H](CC(C)C)NC(=O)[C@@H]2CCCN2C(=O)[C@H](CC(C)C)N(C)C(=O)C[C@@H]1O    5.7
CC(C)C[C@@H]1NC(=O)[C@H]2CCCN2C(=O)[C@H](CC(C)C)N(C)C(=O)C[C@@H](O)[C@@H](CC(C)C)NC(=O)[C@H](CC(C)C)N(C)C(=O)[C@H](CC(C)C)N(C)C(=O)C[C@@H]1O    6.3
CC(C)C[C@@H]1NC(=O)[C@H](Cc2ccc(O)cc2)N(C)C(=O)[C@H]2CCCN2C(=O)[C@H](CC(C)C)NC(=O)[C@H](CC(C)C)N(C)C(=O)[C@@H](CC(C)C)N(C)C1=O (cyclo(L[dNMeL][NMeL]L[dP][NMeY]))    6.6
CC(C)C[C@@H]1NC(=O)[C@H]2CCCN2C(=O)[C@H](CC(C)C)N(C)C(=O)C[C@H](O)[C@H](CC(C)C)NC(=O)[C@H](CC(C)C)N(C)C(=O)[C@@H](CC(C)C)N(C)C(=O)C[C@@H]1O    6.9
C/C1=C\[C@@H](CC(C)C)NC(=O)[C@@H]2CCCN2C(=O)[C@@H](CC(C)C)N(C)C(=O)C[C@H](O)[C@H](CC(C)C)NC(=O)[C@@H](CC(C)C)N(C)C(=O)[C@@H](CC(C)C)N(C)C1=O    6.7
